Data provenance is patent US8608842B2.

- experiment: Solubility of IR coloring material in toluene at 25° C.
- Format: physicochemical
- cond: toluene, 25° C.
I would appreciate it if you labelled entries True when Solubility [mg/ml] Solvent: toluene is 20 mg/mL or higher, otherwise False.

compound: CCCCOc1c2c(c(OCCCC)c3ccccc13)C1=Nc3c4c(OCCCC)c5ccccc5c(OCCCC)c4c4[n]3[Cu][n]3c(c5c(OCCCC)c6ccccc6c(OCCCC)c5c3=NC3=NC(=N4)c4c3c(OCCCC)c3ccccc3c4OCCCC)=NC2=N1
answer_label: False
//
compound: CCCCCCCCN1/C(=C/C=C/C=C/C=C/C2=[N+](CCCCCCCC)c3ccc4ccccc4c3C2(C)C)C(C)(C)c2c1ccc1ccccc21.Cc1ccc(S(=O)(=O)[O-])cc1 [reference compound]
answer_label: True
//
compound: CCOc1c2c(c(OCC)c3ccccc13)-c1nc-2nc2[n-]c(nc3nc(nc4[n-]c(n1)c1c(OCC)c5ccccc5c(OCC)c41)-c1c-3c(OCC)c3ccccc3c1OCC)c1c(OCC)c3ccccc3c(OCC)c21.[Cu+2]
answer_label: False
//
compound: Nc1ccccc1Sc1c2c(c(Sc3ccccc3N)c3c1C1=Nc4c5c(Sc6ccccc6N)c6c(c(Sc7ccccc7N)c5c5[n]4[V](=[O])[n]4c(c7c(Sc8ccccc8N)c8c(c(Sc9ccccc9N)c7c4=NC4=NC(=N5)c5c(Sc7ccccc7N)c7c(c(Sc9ccccc9N)c54)NC4C=CC=CC4S7)SC4C=CC=CC4N8)=NC3=N1)NC1C=CC=CC1S6)SC1C=CC=CC1N2 (stereo not drawn)
answer_label: False
//
compound: CCCCCCCCOc1c2c(c(OCCCCCCCC)c3ccccc13)C1=Nc3c4c(OCCCCCCCC)c5ccccc5c(OCCCCCCCC)c4c4[n]3[Cu][n]3c(c5c(OCCCCCCCC)c6ccccc6c(OCCCCCCCC)c5c3=NC3=NC(=N4)c4c3c(OCCCCCCCC)c3ccccc3c4OCCCCCCCC)=NC2=N1
answer_label: True
//
compound: Nc1ccccc1Sc1c2c(c(Sc3ccccc3N)c3c1C1=Nc4c5c(Sc6ccccc6N)c6c(c(Sc7ccccc7N)c5c5[n]4[Cu][n]4c(c7c(Sc8ccccc8N)c8c(c(Sc9ccccc9N)c7c4=NC4=NC(=N5)c5c(Sc7ccccc7N)c7c(c(Sc9ccccc9N)c54)NC4C=CC=CC4S7)SC4C=CC=CC4N8)=NC3=N1)NC1C=CC=CC1S6)SC1C=CC=CC1N2 (stereo not drawn)
answer_label: False
